# SYSTEM NAME: Heat shock factor protein 1 (Mus musculus, UniProt P38532)
# Sequence (P38532 whole entry): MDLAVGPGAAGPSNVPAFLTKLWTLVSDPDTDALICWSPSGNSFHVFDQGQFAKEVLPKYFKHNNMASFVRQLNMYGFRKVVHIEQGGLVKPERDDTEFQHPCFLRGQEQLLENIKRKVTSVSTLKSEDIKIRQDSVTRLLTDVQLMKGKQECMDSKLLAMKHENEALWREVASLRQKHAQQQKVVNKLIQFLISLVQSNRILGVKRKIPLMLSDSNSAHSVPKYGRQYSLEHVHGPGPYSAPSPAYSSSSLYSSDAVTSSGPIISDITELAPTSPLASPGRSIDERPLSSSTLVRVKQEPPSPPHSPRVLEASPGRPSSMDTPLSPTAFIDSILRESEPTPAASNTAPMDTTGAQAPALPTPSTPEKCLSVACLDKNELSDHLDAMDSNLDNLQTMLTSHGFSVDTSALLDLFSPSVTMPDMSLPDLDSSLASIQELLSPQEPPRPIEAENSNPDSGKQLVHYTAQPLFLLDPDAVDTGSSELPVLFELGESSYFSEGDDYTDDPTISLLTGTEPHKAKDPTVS
# ASSAY PROTOCOL: HSF1 potentiators in luciferase reporter cells, confirmation, cell-based, NIH3T3, luminescence, dose retest (AID 435004);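 note: stress induced by proteasome inhibitor MG132 added 30 min after compound; luciferase reporter driven by HSF1 response element in NIH3T3 cells; actives raise luminescence as potentiators of the MG132 stress response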
# Assay type: functional
The source made the active and inactive calls.
Classes used: 1 = active, 0 = inactive

molecular_string=CCO/C(O)=C/C(C)=N/c1cc(C)nn1-c1ccccc1 assigned_label=0
molecular_string=O=[N+]([O-])c1ccc(-n2nnnc2-c2ccccc2)c([N+](=O)[O-])c1 assigned_label=1
molecular_string=Oc1ccccc1N=Nc1nc(-c2ccccc2)c(-c2ccccc2)[nH]1 assigned_label=1
molecular_string=O=C(c1ccc2c(=O)n3c(nc2c1)CCCCC3)N1CCN(C(c2ccccc2)c2ccccc2)CC1 assigned_label=0

* * *

We begin with a simple list: items and their reported EC50.
# Tested on: Streptococcus sp. 'group A'
# ASSAY PROTOCOL: growth inhibition of control SK(-) GAS strain, dose response, counter-screen for streptokinase expression inhibitor project, luminescence, kanamycin, BacTiterGlo, confirmation (AID 1900)
# Type: functional, organism-based
Activity calls are given as the source filed them.
RECORDED METRIC: EC50

molecular_string=C[C@@H](C[C@@H](O)[C@H](O)C(C)(C)O)[C@@H]1CC[C@]2(C)C3=CC[C@H]4C(C)(C)C(=O)CC[C@]4(C)[C@H]3CC[C@@]12C recorded_metric=EC50 result="3.13 µM (active)"
molecular_string=COCCCN1C(=O)/C(=C\c2nc(C#N)c(Nc3ccc(C)cc3)o2)SC1=S recorded_metric=EC50 result="108 µM (active)"
molecular_string=C=CCc1cc(/C=C2/NC(=O)N(CC)C2=O)cc(OCC)c1OCc1ccc(C(=O)O)cc1 recorded_metric=EC50 result="12.5 µM (active)"
molecular_string=COc1ccc2c3ncn(CCc4c[nH]cn4)c(O)c-3nc2c1 recorded_metric=EC50 result="> 150 µM (not active)"

* * *

# SYSTEM NAME: Microphthalmia-associated transcription factor (Homo sapiens, UniProt O75030)
# Sequence (O75030 whole entry): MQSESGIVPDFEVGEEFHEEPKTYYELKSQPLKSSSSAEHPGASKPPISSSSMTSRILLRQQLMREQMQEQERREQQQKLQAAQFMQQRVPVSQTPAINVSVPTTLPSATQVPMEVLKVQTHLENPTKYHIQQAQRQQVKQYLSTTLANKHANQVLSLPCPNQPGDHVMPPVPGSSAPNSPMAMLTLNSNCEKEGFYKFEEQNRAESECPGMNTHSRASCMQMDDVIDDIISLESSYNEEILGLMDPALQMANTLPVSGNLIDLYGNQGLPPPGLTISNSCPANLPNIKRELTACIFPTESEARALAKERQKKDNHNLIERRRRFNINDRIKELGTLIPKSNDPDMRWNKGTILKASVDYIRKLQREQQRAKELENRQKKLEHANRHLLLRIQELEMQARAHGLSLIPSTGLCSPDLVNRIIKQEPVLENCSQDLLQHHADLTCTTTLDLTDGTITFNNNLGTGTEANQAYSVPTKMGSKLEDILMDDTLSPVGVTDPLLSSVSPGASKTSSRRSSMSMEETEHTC
# ASSAY PROTOCOL: TRPM1 promoter luciferase signal decrease, dose response, MITF inhibitor project, cell-based, SK-MEL-5, cherry-picked, set 3 (AID 493073);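 note: SK-MEL-5 melanoma cells with luciferase driven by the MITF target TRPM1 promoter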
# Format: functional
Calls of active or inactive are those of the source.
RECORDED METRIC: AC50

molecular_string=COc1ccc(C(=O)N/N=C/c2cc(Br)ccc2O)cc1OC system_name="Microphthalmia-associated transcription factor (Homo sapiens, UniProt O75030)" result="4.76 µM (active)"
molecular_string=Cc1cccc(NC2=C(NC(=O)c3ccccc3)C(=O)c3ccccc3C2=O)c1 system_name="Microphthalmia-associated transcription factor (Homo sapiens, UniProt O75030)" result="9.99 µM (active)"
molecular_string=CC(C)(C)C(=O)Cn1ncc(Br)c(Br)c1=O system_name="Microphthalmia-associated transcription factor (Homo sapiens, UniProt O75030)" result="3.92 µM (active)"
molecular_string=O=[N+]([O-])c1ccc(-n2nnnc2-c2ccccc2)c([N+](=O)[O-])c1 system_name="Microphthalmia-associated transcription factor (Homo sapiens, UniProt O75030)" result="7.37 µM (active)"
molecular_string=CCCOCc1ccc(O)c2ncccc12 system_name="Microphthalmia-associated transcription factor (Homo sapiens, UniProt O75030)" result="15.5 µM (active)"
molecular_string=CC(C)C(=O)N1CCN(c2ccc(NC(=O)c3ccc([N+](=O)[O-])o3)cc2Cl)CC1 system_name="Microphthalmia-associated transcription factor (Homo sapiens, UniProt O75030)" result="7.05 µM (active)"
